Tested on: HEK293
PROCEDURE_TEXT: Inhibition of NF-kappaB expressed in HEK293 cells assessed as inhibition of TNF-alpha-induced transcriptional activation at 1 uM treated 24 hrs before TNFalpha challenge by luciferase reporter gene assay relative to control
Format: cell-based
RECORDED_ENDPOINT: inhibition (%)
Respond with the bare value in %.

Query :: Bench note: what inhibition did CNc1nc(-c2ccccc2)c(-c2nc3ccccc3c(=O)n2-c2ccc(Cl)cc2)s1 show?
Result :: 72

Query :: Try this molecule too: CCOC(=O)Nc1nc(-c2ccccc2)c(-c2nc3ccccc3c(=O)n2-c2ccccc2)s1
Result :: 32

Query :: For CCOC(=O)Nc1nc(-c2ccccc2)c(-c2nc3ccccc3c(=O)n2-c2ccc(OC)cc2)s1 then?
Result :: 29

Query :: Subsequent entry: COc1ccc(-n2c(-c3sc(Nc4ccccc4)nc3-c3ccccc3)nc3ccccc3c2=O)cc1
Result :: 63

---

SYSTEM_UNDER_TEST: Transcription factor Jun (Homo sapiens) (UniProt P05412)
Sequence (P05412 whole entry): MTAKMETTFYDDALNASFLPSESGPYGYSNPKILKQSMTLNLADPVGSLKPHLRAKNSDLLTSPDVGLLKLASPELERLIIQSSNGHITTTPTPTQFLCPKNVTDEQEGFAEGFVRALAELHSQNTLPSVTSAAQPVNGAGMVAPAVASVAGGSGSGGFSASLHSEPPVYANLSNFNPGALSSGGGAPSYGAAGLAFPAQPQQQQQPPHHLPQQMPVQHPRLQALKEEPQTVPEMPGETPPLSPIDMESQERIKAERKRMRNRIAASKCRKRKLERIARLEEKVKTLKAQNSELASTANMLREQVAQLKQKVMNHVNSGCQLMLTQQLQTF
PROCEDURE_TEXT: Inhibition of AP1 expressed in HEK293 cells assessed as inhibition of PMA-induced transcriptional activation at 1 uM treated 24 hrs before PMA challenge by luciferase reporter gene assay relative to control
Format: cell-based
RECORDED_ENDPOINT: inhibition

Query :: Given the compound O=C(Nc1nc(-c2ccccc2)c(-c2nc3ccccc3c(=O)n2-c2ccccc2)s1)c1ccccc1 , what is its reported inhibition?
Result :: 26%

Query :: Now give it for O=C(Nc1nc(-c2ccccc2)c(-c2nc3ccccc3c(=O)n2-c2ccc(Cl)cc2)s1)c1ccccc1 too.
Result :: 36%

Query :: Now the compound O=c1c2ccccc2nc(-c2sc(Nc3ccccc3)nc2-c2ccccc2)n1-c1ccccc1
Result :: 51%

Query :: Field entry: CCOC(=O)Nc1nc(-c2ccccc2)c(-c2nc3ccccc3c(=O)n2-c2ccc(Cl)cc2)s1
Result :: 20%

Query :: And then O=c1c2ccccc2nc(-c2sc(Nc3ccc(Cl)cc3)nc2-c2ccccc2)n1-c1ccccc1 , what is it?
Result :: 57%

Query :: And the next one, CCOC(=O)Nc1nc(-c2ccccc2)c(-c2nc3ccccc3c(=O)n2-c2ccc(OC)cc2)s1 ?
Result :: 34%

Query :: // repeat for CNc1nc(-c2ccccc2)c(-c2nc3ccccc3c(=O)n2-c2ccccc2)s1 and report
Result :: 58%

Query :: Next compound: COc1ccc(-n2c(-c3sc(Nc4ccc(Cl)cc4)nc3-c3ccccc3)nc3ccccc3c2=O)cc1
Result :: 59%

Query :: Item: Cc1nc(Nc2ccc(Cl)cc2)sc1-c1nc2ccccc2c(=O)n1-c1ccc(Cl)cc1
Result :: 75%

Query :: Then CNc1nc(-c2ccccc2)c(-c2nc3ccccc3c(=O)n2-c2ccc(Cl)cc2)s1 ?
Result :: 67%

Query :: Also COc1ccc(-n2c(-c3sc(NC(=O)c4ccccc4)nc3-c3ccccc3)nc3ccccc3c2=O)cc1 , if possible.
Result :: 8%

Query :: Please give the result for Cc1nc(Nc2ccccc2)sc1-c1nc2ccccc2c(=O)n1-c1ccc(Cl)cc1 too.
Result :: 29%

Query :: Entry O=c1c2ccccc2nc(-c2sc(Nc3ccccc3)nc2-c2ccccc2)n1-c1ccc(Cl)cc1 please
Result :: 39%

Query :: And what about the compound CCOC(=O)Nc1nc(C)c(-c2nc3ccccc3c(=O)n2-c2ccc(Cl)cc2)s1 ?
Result :: 30%

Query :: Input COc1ccc(-n2c(-c3sc(Nc4ccccc4)nc3-c3ccccc3)nc3ccccc3c2=O)cc1
Result :: 19%

Query :: Query O=c1c2ccccc2nc(-c2sc(Nc3ccc(Cl)cc3)nc2-c2ccccc2)n1-c1ccc(Cl)cc1 next
Result :: 47%

Query :: Further, for CCOC(=O)Nc1nc(-c2ccccc2)c(-c2nc3ccccc3c(=O)n2-c2ccccc2)s1 ?
Result :: 7%

---

System: HEK293
PROCEDURE_TEXT: Inhibition of NF-kappaB expressed in HEK293 cells assessed as inhibition of TNF-alpha-induced transcriptional activation at 1 uM treated 24 hrs before TNFalpha challenge by luciferase reporter gene assay relative to control
Format: cell-based
RECORDED_ENDPOINT: inhibition (%)
Quick reminder: number only, in %, skip the unit.

Query :: inhibition of Cc1nc(Nc2ccc(Cl)cc2)sc1-c1nc2ccccc2c(=O)n1-c1ccc(Cl)cc1 on HEK293?
Result :: 79

Query :: Continue with CNc1nc(-c2ccccc2)c(-c2nc3ccccc3c(=O)n2-c2ccccc2)s1
Result :: 71

Query :: Also check O=c1c2ccccc2nc(-c2sc(Nc3ccccc3)nc2-c2ccccc2)n1-c1ccc(Cl)cc1
Result :: 67

Query :: Try this compound too: O=c1c2ccccc2nc(-c2sc(Nc3ccc(Cl)cc3)nc2-c2ccccc2)n1-c1ccc(Cl)cc1
Result :: 62

Query :: Also COc1ccc(-n2c(-c3sc(Nc4ccc(Cl)cc4)nc3-c3ccccc3)nc3ccccc3c2=O)cc1 ?
Result :: 46

Query :: Next entry: O=C(Nc1nc(-c2ccccc2)c(-c2nc3ccccc3c(=O)n2-c2ccc(Cl)cc2)s1)c1ccccc1
Result :: 73

Query :: Another compound to check: CCOC(=O)Nc1nc(C)c(-c2nc3ccccc3c(=O)n2-c2ccc(Cl)cc2)s1
Result :: 54

Query :: Can you check CCOC(=O)Nc1nc(-c2ccccc2)c(-c2nc3ccccc3c(=O)n2-c2ccc(Cl)cc2)s1 next?
Result :: 24

Query :: Proceed to O=C(Nc1nc(-c2ccccc2)c(-c2nc3ccccc3c(=O)n2-c2ccccc2)s1)c1ccccc1
Result :: 43

---

SYSTEM_UNDER_TEST: UniProt:P06730
PROCEDURE_TEXT: Inhibition of eIF-4E expressed in human FaDu cells assessed as inhibition of translational activation at 1 uM by luciferase reporter gene assay relative to control
Type: cell-based
Label 1.0 when inhibition >= 40%; otherwise 0.0.

Query :: Determine whether measured inhibition meets or exceeds 40% for O=c1c2ccccc2nc(-c2sc(Nc3ccccc3)nc2-c2ccccc2)n1-c1ccccc1
Result :: 0.0

Query :: Same read-out for CCOC(=O)Nc1nc(-c2ccccc2)c(-c2nc3ccccc3c(=O)n2-c2ccc(Cl)cc2)s1 ?
Result :: 0.0

Query :: Item: COc1ccc(-n2c(-c3sc(Nc4ccccc4)nc3-c3ccccc3)nc3ccccc3c2=O)cc1
Result :: 0.0

Query :: Cc1nc(Nc2ccccc2)sc1-c1nc2ccccc2c(=O)n1-c1ccc(Cl)cc1 ?
Result :: 1.0

Query :: // query: O=c1c2ccccc2nc(-c2sc(Nc3ccccc3)nc2-c2ccccc2)n1-c1ccc(Cl)cc1
Result :: 0.0

Query :: Also, COc1ccc(-n2c(-c3sc(Nc4ccc(Cl)cc4)nc3-c3ccccc3)nc3ccccc3c2=O)cc1 please.
Result :: 0.0

Query :: Another molecule to check: CNc1nc(C)c(-c2nc3ccccc3c(=O)n2-c2ccc(Cl)cc2)s1
Result :: 1.0

---

SYSTEM_UNDER_TEST: Eukaryotic translation initiation factor 4E (Homo sapiens) (UniProt P06730)
Sequence (P06730 whole entry): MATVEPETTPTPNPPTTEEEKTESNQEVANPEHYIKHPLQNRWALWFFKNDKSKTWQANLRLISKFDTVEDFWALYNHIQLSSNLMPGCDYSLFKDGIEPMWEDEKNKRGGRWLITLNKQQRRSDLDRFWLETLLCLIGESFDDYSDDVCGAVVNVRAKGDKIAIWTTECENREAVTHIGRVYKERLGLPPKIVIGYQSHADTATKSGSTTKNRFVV
PROCEDURE_TEXT: Inhibition of eIF-4E expressed in human FaDu cells assessed as inhibition of translational activation at 1 uM by luciferase reporter gene assay relative to control
Format: cell-based
Grouping by measured inhibition is done with the following cut points: lower bin = under 30%, middle bin = from 30% up to 40%, upper bin = 40% and over

Query :: Categorize the following entry: Cc1nc(Nc2ccc(Cl)cc2)sc1-c1nc2ccccc2c(=O)n1-c1ccc(Cl)cc1
Result :: lower bin

Query :: And what about the compound CNc1nc(-c2ccccc2)c(-c2nc3ccccc3c(=O)n2-c2ccccc2)s1 ?
Result :: middle bin

Query :: CCOC(=O)Nc1nc(-c2ccccc2)c(-c2nc3ccccc3c(=O)n2-c2ccc(OC)cc2)s1 ?
Result :: lower bin

Query :: Similarly, CCOC(=O)Nc1nc(C)c(-c2nc3ccccc3c(=O)n2-c2ccc(Cl)cc2)s1 ?
Result :: upper bin

Query :: Same question for COc1ccc(-n2c(-c3sc(NC(=O)c4ccccc4)nc3-c3ccccc3)nc3ccccc3c2=O)cc1 please.
Result :: middle bin

Query :: For O=c1c2ccccc2nc(-c2sc(Nc3ccc(Cl)cc3)nc2-c2ccccc2)n1-c1ccc(Cl)cc1 then?
Result :: middle bin

---

System: HEK293
PROCEDURE_TEXT: Inhibition of NF-kappaB expressed in HEK293 cells assessed as inhibition of TNF-alpha-induced transcriptional activation at 1 uM treated 24 hrs before TNFalpha challenge by luciferase reporter gene assay relative to control
Type: cell-based
RECORDED_ENDPOINT: inhibition

Query :: What measured inhibition goes with O=c1c2ccccc2nc(-c2sc(Nc3ccccc3)nc2-c2ccccc2)n1-c1ccccc1 ?
Result :: 71%

Query :: Query COc1ccc(-n2c(-c3sc(NC(=O)c4ccccc4)nc3-c3ccccc3)nc3ccccc3c2=O)cc1 next
Result :: 12%

Query :: Lookup CNc1nc(C)c(-c2nc3ccccc3c(=O)n2-c2ccc(Cl)cc2)s1
Result :: 80%

Query :: Consider next the compound O=c1c2ccccc2nc(-c2sc(Nc3ccc(Cl)cc3)nc2-c2ccccc2)n1-c1ccccc1 in the same way.
Result :: 71%

Query :: Also need Cc1nc(Nc2ccccc2)sc1-c1nc2ccccc2c(=O)n1-c1ccc(Cl)cc1 , thanks.
Result :: 66%
